Reference for the values: patent US20220275067A1

# experimental_system: T1, recombinant human 4R0N tau (human, UniProt P10636 2-758)
# T1 construct: also called recombinant 4R0N human tau; P10636-6
# T1 sequence (P10636 other isoform, or with tags, fused parts or gaps limits assumed): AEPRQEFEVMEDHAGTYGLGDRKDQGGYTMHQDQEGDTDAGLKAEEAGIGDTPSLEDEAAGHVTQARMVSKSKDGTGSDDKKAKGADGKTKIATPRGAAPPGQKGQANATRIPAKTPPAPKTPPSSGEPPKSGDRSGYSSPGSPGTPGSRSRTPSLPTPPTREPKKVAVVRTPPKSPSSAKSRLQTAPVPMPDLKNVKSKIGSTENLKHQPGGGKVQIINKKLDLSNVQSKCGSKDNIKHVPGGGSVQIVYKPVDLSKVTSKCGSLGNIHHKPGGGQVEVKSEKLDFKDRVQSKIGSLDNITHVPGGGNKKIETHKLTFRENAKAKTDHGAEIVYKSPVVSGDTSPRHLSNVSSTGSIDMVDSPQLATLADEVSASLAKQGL
# experimental_details: SPR Biacore T200; antibody captured by anti-human Fc; tau as analyte; global 1:1 fit
Readings of koff for the listed binders
Kindly provide the numeric value in s⁻¹ only, without the unit symbol.

Some binders with known koff results, for comparison:
binder	value_kind	recorded_measurement
hu9F5VHv10/hu9F5VLv9_DIM11 (antibody, V domains shown, also called H10L9-DIM11; H10L9DIM11) VH: EVQLVQSGAEVKKPGATVKISCKASGFNIKDDYMNWVKQRPEKGLEWIGWIDPENGDTEYASKFQGRATMTADTSTNTAYMELSSLRSEDTAVYYCTTSNGWGQGTLVTVSS VL: DIQMTQSPFSLPVTPGESASISCRSSKSLGHSNGITYLYWYGQKPGQSPQLLIYQGSNRASGVPDRFSSSGSGTDFTLKISRVEAEDVGVYYCAQNIELPLTFGQGTKLEIK	koff	0.000287
hu9F5VHv9/hu9F5VLv8 (antibody, V domains shown) VH: EVQLVQSGAEVKKPGATVKISCKASGFNIKDDYMNWVQQRPGKGLEWIGWIDPENGDTEYASKFQGRATMTADTSTNTAYMELSSLRSEDTAVYYCTTSNGWGQGTLVTVSS VL: DIVMTQSPFSLPVTPGESASISCRSSKSLLHSNGITYLYWYLQKPGQSPQLLIYQMSNLASGVPNRFSSSGSGTDFTLKISRVEAEDVGVYYCAQNLELPLTFGQGTKLEIK	koff	0.000429
hu9F5VHv9/hu9F5VLv8_DIM5 (antibody, V domains shown) VH: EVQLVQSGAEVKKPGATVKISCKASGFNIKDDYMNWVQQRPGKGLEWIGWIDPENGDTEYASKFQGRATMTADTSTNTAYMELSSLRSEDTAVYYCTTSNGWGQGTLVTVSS VL: DIQMTQSPFSLPVTPGESASISCRSSKSLGHSNGITYLYWYQQKPGQSPQLLIYQGSNRASGVPNRFSSSGSGTDFTLKISRVEAEDVGVYYCAQNIELPLTFGQGTKLEIK	koff	0.000295
hu9F5VHv9/hu9F5VLv8_DIM21 (antibody, V domains shown) VH: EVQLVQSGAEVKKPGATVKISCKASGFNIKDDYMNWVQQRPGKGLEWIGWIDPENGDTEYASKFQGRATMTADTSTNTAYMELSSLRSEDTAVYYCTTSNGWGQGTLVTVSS VL: DIQMTQSPFSLPVTPGESASISCRSSKSLSHSNGITYLYWYQQKPGQSPQLLIYQISNGASGVPNRFSSSGSGTDFTLKISRVEAEDVGVYYCAQNLELPLTFGQGTKLEIK	koff	1.12

Could you now look at the following binder, please?
Qu. Reported koff for hu9F5VHv10/hu9F5VLv9_DIM2 (antibody, V domains shown) VH: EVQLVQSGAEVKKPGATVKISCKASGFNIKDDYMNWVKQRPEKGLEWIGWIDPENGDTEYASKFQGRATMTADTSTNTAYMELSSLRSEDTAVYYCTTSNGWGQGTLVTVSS VL: DIQMTQSPFSLPVTPGESASISCRSSKSLSHSNGITYLYWYQQKPGQSPQLLIYQGSNRASGVPDRFSSSGSGTDFTLKISRVEAEDVGVYYCAQNIELPLTFGQGTKLEIK : what is it?
Ans. 0.00184
